target-desc: human SGLT1 (Homo sapiens, UniProt P13866)
Construct: expressed in transfected cells
Sequence (P13866 whole entry): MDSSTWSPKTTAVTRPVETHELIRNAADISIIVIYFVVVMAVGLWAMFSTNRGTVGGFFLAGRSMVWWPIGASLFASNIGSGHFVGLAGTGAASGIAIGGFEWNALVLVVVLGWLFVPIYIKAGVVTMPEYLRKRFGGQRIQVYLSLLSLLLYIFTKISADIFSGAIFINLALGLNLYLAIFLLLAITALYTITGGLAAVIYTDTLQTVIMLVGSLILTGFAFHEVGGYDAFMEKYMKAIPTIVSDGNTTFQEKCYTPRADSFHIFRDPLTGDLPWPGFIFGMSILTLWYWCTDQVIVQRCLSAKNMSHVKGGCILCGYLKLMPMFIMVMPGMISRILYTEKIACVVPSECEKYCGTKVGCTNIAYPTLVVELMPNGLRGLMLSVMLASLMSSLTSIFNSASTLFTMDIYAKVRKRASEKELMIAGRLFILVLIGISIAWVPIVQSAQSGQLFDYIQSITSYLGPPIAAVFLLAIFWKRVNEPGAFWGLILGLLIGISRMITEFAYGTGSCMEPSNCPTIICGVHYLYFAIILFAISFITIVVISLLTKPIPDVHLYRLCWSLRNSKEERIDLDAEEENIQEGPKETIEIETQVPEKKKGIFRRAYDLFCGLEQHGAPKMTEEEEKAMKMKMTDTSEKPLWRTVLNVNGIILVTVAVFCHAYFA
experimental-protocol: SGLT1 in vitro assay: Na-dependent 14C-AMG uptake in CHO-K1 cells stably expressing human SGLT1
Type: cell-based
measurement-context: @ 0.3 μM; CHO-K1 cells stably expressing human SGLT1; 14C-AMG uptake; read-out: SGLT1 % Inh @ 0.3 μM
readout: inhibition at 0.3 µM (%)

Reference set, count: 3
CCc1ccc(Cc2cc([C@@H]3O[C@H](CO)C(F)(F)[C@H](O)[C@H]3O)c(O)c3c2OCC3)cc1 [Compound 30] | 56.7
COc1cc(O)c([C@@H]2O[C@H](CO)C(F)(F)[C@H](O)[C@H]2O)cc1Cc1ccc2c(c1)OCCO2 [Compound 54] | 41.8
CCc1ccc(Cc2cc([C@@H]3O[C@H](CO)C(F)(F)[C@H](O)[C@H]3O)c(OC)cc2OC)cc1 [Compound 153] | 48.7

a = OC[C@H]1O[C@@H](c2cc(Cc3ccc(Cl)cc3)c(Cl)cc2O)[C@H](O)[C@@H](O)C1(F)F [Compound 163]
b = COc1cc(C)c(Cc2cc3ccccc3s2)cc1[C@@H]1O[C@H](CO)C(F)(F)[C@H](O)[C@H]1O [Compound 35]
q: Of a and b , which shows the smaller inhibition at 0.3 µM value? Write down the label attached to your selection.
a: b

1 = Cc1cc(O)c([C@@H]2O[C@H](CO)C(F)(F)[C@H](O)[C@H]2O)cc1Cc1ccc2c(c1)OCCO2 [Compound 56]
2 = CCOc1ccc(Cc2cc([C@@H]3O[C@H](CO)C(F)(F)[C@H](O)[C@H]3O)c(O)cc2C)cc1 [Compound 47]
q: Of 1 and 2 , which shows the smaller inhibition at 0.3 µM value? Write down the label attached to your selection.
a: 2
(2: 47.9%, 1: 78.3%)

P = Cc1cc(O)c([C@@H]2O[C@H](CO)C(F)(F)[C@H](O)[C@H]2O)cc1Cc1ccc(Cl)s1 [Compound 110]
Q = COc1cc(C)c(Cc2ccc(OCF)cc2)cc1[C@@H]1O[C@H](CO)C(F)(F)[C@H](O)[C@H]1O [Compound 138]
q: Of P and Q , which shows the smaller inhibition at 0.3 µM value? Write down the label attached to your selection.
a: Q

a = Cc1ccc(Cc2cc([C@@H]3O[C@H](CO)C(F)(F)[C@H](O)[C@H]3O)c(O)cc2Cl)s1 [Compound 161]
b = [2H]C([2H])(c1ccc2c(c1)OCCO2)c1cc([C@@H]2O[C@H](CO)C(F)(F)[C@H](O)[C@H]2O)ccc1CC [Compound 192]
q: a or b : whose inhibition at 0.3 µM is greater? Write down the label attached to your selection.
a: a
(a: 87.8%, b: 49.9%)

----------
target-desc: human SGLT1 (Homo sapiens)
Construct: expressed in transfected cells
experimental-protocol: SGLT1 in vitro assay: Na-dependent 14C-AMG uptake in CHO-K1 cells stably expressing human SGLT1
Format: cell-based
measurement-context: @ 0.3 μM; CHO-K1 cells stably expressing human SGLT1; 14C-AMG uptake
Protocol: Biological Example 1: SGLT1 and SGLT2 In Vitro Assays The ability of the compounds of formula (I) of the present invention to treat an SGLT-mediated condition was determined using the following procedures: […] Inhibition of SGLT1 and SGLT2 activity was assessed in CHO K1 cells stably expressing either human SGLT1 or SGLT2, using the SGLT specific glucose analog methyl-glucopyranoside (Sigma Catalog No. M-9376). […] Plates were counted in a TopCount (Packard, Meriden, Conn.) […]
readout: SGLT1 % Inh @ 0.3 μM (%)

Reference set, count: 2
Cc1cc(O)c([C@@H]2O[C@H](CO)C(F)(F)[C@H](O)[C@H]2O)cc1Cc1ccc(-c2cccc(F)c2)s1 | 21.6
COc1cc(OC)c([C@@H]2O[C@H](CO)C(F)(F)[C@H](O)[C@H]2O)cc1Cc1ccc(OC(F)(F)F)cc1 | 20.2

P = OC[C@H]1O[C@@H](c2cc(Cc3ccc(OCF)cc3)c(C3CC3)cc2O)[C@H](O)[C@@H](O)C1(F)F
Q = CCc1ccc(Cc2cc([C@@H]3O[C@H](CO)C(F)(F)[C@H](O)[C@H]3O)c(OC)cc2C)cc1
R = COc1cc(C)c(Cc2cc3cc(F)ccc3s2)cc1[C@@H]1O[C@H](CO)C(F)(F)[C@H](O)[C@H]1O
S = COCCOc1cc(C)c(Cc2cc3ccccc3s2)cc1[C@@H]1O[C@H](CO)C(F)(F)[C@H](O)[C@H]1O
T = CCOc1cc(C)c(Cc2cc3ccccc3s2)cc1[C@@H]1O[C@H](CO)C(F)(F)[C@H](O)[C@H]1O
q: List the 5 entries from lowest SGLT1 % Inh @ 0.3 μM to highest SGLT1 % Inh @ 0.3 μM value. Your reply should list the labels following the order given in the request.
a: R, T, Q, S, P
(R: 0.0%, T: 5.8%, Q: 16.4%, S: 31.8%, P: 72.3%)
